// reported IC50 for each item listed
target: CDK4/cyclin D3 (Homo sapiens); construct: purchased Carna Biosciences, Inc. QS S Assist CDK4/Cyclin D3_FP Kit; assay: Human CDK4/cyclin D3 inhibitory activity (QS S Assist CDK4/Cyclin D3_FP Kit, IMAP fluorescence polarization); format: biochemical; conditions: Human CDK4/cyclin D3 inhibitory activity; read-out: CDK4 Activity symbol
Sequence (P11802 whole entry): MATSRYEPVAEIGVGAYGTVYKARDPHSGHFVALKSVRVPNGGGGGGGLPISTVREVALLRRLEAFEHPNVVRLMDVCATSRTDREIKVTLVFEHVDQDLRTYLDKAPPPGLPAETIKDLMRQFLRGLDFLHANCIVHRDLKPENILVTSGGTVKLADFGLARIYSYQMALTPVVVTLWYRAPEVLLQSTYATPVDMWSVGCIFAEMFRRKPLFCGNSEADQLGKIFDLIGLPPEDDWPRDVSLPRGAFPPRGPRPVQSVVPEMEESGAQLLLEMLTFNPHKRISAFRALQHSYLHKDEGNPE
Sequence (P30281 whole entry partner): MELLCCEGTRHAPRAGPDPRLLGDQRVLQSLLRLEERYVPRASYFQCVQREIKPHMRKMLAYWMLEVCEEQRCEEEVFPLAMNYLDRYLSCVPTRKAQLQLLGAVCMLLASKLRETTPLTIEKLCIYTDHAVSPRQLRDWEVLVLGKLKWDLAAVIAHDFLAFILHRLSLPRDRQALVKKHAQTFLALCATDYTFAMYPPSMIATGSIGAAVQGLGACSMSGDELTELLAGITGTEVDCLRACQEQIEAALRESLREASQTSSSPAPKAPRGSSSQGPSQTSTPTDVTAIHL
metric_name: IC50

molecule	metric_name	assay_result
CC(=O)N1CCN(Cc2ccc(Nc3ncc4cc(C(F)F)nc(NC(C)C)c4n3)nc2)CC1 [Compound 117]	IC50	< 10 nM
CO[C@H](C)c1cc2cnc(Nc3ccc(N4CC(=O)NCC4=O)cn3)nc2c(NC(C)C)n1 [Compound 533]	IC50	< 10 nM
FC(F)c1cc2cnc(Nc3ccc(CN4CCNCC4)cn3)nc2c(NC2CCOCC2)n1 [Compound 364]	IC50	< 10 nM
CO[C@H](C)c1cc2cnc(Nc3ccc(N4CCNCC4)nn3)nc2c(NC2CCOCC2)n1 [Compound 285]	IC50	< 10 nM
CC(C)Nc1nc(C(C)O)cc2cnc(Nc3ccc(N4CCC(O)CC4)cn3)nc12 (stereo not shown) [Compound 61]	IC50	< 10 nM
COC(C)c1cc2cnc(Nc3ccc(CN4CCNCC4)cn3)nc2c(NCC2CNC(=O)C2)n1 (stereo not shown) [Compound 406]	IC50	10 to 100 nM
COC(C)c1cc2cnc(Nc3ccc(CN4CCNCC4)cn3)nc2c(NCCN2CCNC2=O)n1 (stereo not shown) [Compound 393]	IC50	10 to 100 nM
C[C@@H](O)c1cc2cnc(Nc3ccc(N4CCNCC4)nn3)nc2c(NC2(C(=O)O)CCCC2)n1 [Compound 316]	IC50	≥ 100 nM
CO[C@H](C)c1cc2cnc(Nc3ccc(N4CCNCC4)nn3)nc2c(NC(C)C)n1 [Compound 217]	IC50	< 10 nM
CC(C)Nc1nc(C(F)F)cc2cnc(Nc3ccc(CN4CCCNC4=O)cn3)nc12 [Compound 219]	IC50	< 10 nM
CNCCOc1ccc(Nc2ncc3cc([C@@H](C)O)nc(NC4CCC(OC)CC4)c3n2)nc1 (stereo partly shown) [Compound 592]	IC50	< 10 nM
CC(C)Nc1nc(C(F)F)cc2cnc(Nc3ccc(CN4CCC(O)CC4)cn3)nc12 [Compound 142]	IC50	< 10 nM
CC(C)Nc1nc(C(C)O)cc2cnc(Nc3ccc(N4CCC(N(C)C)C(F)C4)nn3)nc12 (stereo not shown) [Compound 622]	IC50	< 10 nM
CO[C@H](C)c1cc2cnc(Nc3ccc(N4CCNC[C@@H]4C)nn3)nc2c(NC(C)C)n1 [Compound 371]	IC50	< 10 nM
C[C@@H](O)c1cc2cnc(Nc3ccc(N4CCNCC4)nn3)nc2c(NCC2CCOCC2)n1 [Compound 313]	IC50	< 10 nM
CC(=O)c1cc2cnc(Nc3ccc(N4CCNCC4)cn3)nc2c(NC(C)(C)C)n1 [Compound 59]	IC50	< 10 nM
